- Measurement target: M2 monoclonal anti-flag antibody
- Test description: Microarray binding of spotted hits titrated with anti-FLAG antibody
- Condition context: apparent KD from microarray binding curves with decreasing anti-FLAG antibody concentrations; NA = spot not bound by anti-FLAG antibody
Square brackets hold non-standard residues; d marks the D form. Peptide text beside a SMILES is read from it. * marks the point of attachment. Gly(N-piperonyl) = O=C(O)CNCc1ccc2c(c1)OCO2; hSer(lactone) = O=C1OCC[C@@H]1N*; NFurfurylGly = O=C(O)CNCc1ccco1
Endpoint label: pKd
The meaning of pKd here: minus log10 of the concentration in molar units.

Would you kindly share the measured pKd for C[C@@H](NC(=O)[C@@H](Cc1ccc(O)cc1)NC(=O)[C@@H](CCCCN)NC(=O)[C@@H](Cc1ccccc1)NC(=O)[C@H](N)CC(=O)O)C(=O)N[C@H](CCC(=O)O)C(=O)N(CC(=O)N[C@H]1CCOC1=O)Cc1ccco1 [Spot E8] (H-[dD][dF][dK][dY][dA][dE][NFurfurylGly]-{hSer(lactone)}; C-terminus assumed) ?
8.05

Would you kindly share the measured pKd for NCCCC[C@@H](N)C(=O)N[C@H](Cc1ccc(O)cc1)C(=O)N[C@H](CCC(=O)O)C(=O)N[C@H](Cc1ccc(O)cc1)C(=O)N[C@H](CCC(=O)O)C(=O)N[C@H](Cc1ccc(O)cc1)C(=O)N(CC(=O)N[C@H]1CCOC1=O)Cc1ccco1 [Spot H1] (H-[dK][dY][dE][dY][dE][dY][NFurfurylGly]-{hSer(lactone)}; C-terminus assumed) ?
8.22

Would you kindly share the measured pKd for NCCCC[C@@H](N)C(=O)N[C@H](Cc1ccc(O)cc1)C(=O)N[C@H](Cc1ccc(O)cc1)C(=O)N[C@H](CCC(=O)O)C(=O)N[C@H](CC(N)=O)C(=O)N(CC(=O)N(CC(=O)N[C@H]1CCOC1=O)Cc1ccco1)Cc1ccc2c(c1)OCO2 [Spot H7] (H-[dK][dY][dY][dE][dN][Gly(N-piperonyl)][NFurfurylGly]-{hSer(lactone)}) ?
8.05

---

- Measurement target: M2 monoclonal anti-flag antibody
- Test description: Microarray binding of spotted hits titrated with anti-FLAG antibody
- Condition context: apparent KD from microarray binding curves with decreasing anti-FLAG antibody concentrations; NA = spot not bound by anti-FLAG antibody
Square brackets hold non-standard residues; d marks the D form. Peptide text beside a SMILES is read from it. * marks the point of attachment. N(4-Sulfamoylphenethyl)Gly = NS(=O)(=O)c1ccc(CCNCC(=O)O)cc1; Gly(N-piperonyl) = O=C(O)CNCc1ccc2c(c1)OCO2; hSer(lactone) = O=C1OCC[C@@H]1N*; NFurfurylGly = O=C(O)CNCc1ccco1; NAllylGly = C=CCNCC(=O)O
Endpoint label: pKd
The meaning of pKd here: minus log10 of the concentration in molar units.

# returns recorded pKd (system: M2 monoclonal anti-flag antibody) for C=CCNCC(=O)N[C@@H](C(=O)N[C@H](CCCCN)C(=O)N[C@H](Cc1ccc(O)cc1)C(=O)N[C@H](CC(=O)O)C(=O)N[C@H](CC(=O)O)C(=O)N(CC(=O)N[C@H]1CCOC1=O)Cc1ccco1)[C@H](C)O [Spot B1] (H-[NAllylGly][dT][dK][dY][dD][dD][NFurfurylGly]-{hSer(lactone)})
8.52

# returns recorded pKd (system: M2 monoclonal anti-flag antibody) for C=CCN(CC(=O)N[C@H](CCC(=O)O)C(=O)N[C@H](CC(C)C)C(=O)N(CC(=O)N[C@H]1CCOC1=O)Cc1ccco1)C(=O)[C@@H](CC(=O)O)NC(=O)[C@@H](Cc1ccc(O)cc1)NC(=O)[C@H](N)CCCCN [Spot H9] (H-[dK][dY][dD][NAllylGly][dE][dL][NFurfurylGly]-{hSer(lactone)}; C-terminus assumed)
8.40

# returns recorded pKd (system: M2 monoclonal anti-flag antibody) for NCCCC[C@@H](N)C(=O)N[C@H](Cc1ccc(O)cc1)C(=O)N[C@H](CC(=O)O)C(=O)N(CCc1ccc(S(N)(=O)=O)cc1)CC(=O)N(CCc1ccc(S(N)(=O)=O)cc1)CC(=O)N[C@H](CC(=O)O)C(=O)N(CC(=O)N[C@H]1CCOC1=O)Cc1ccco1 [Spot H2] (H-[dK][dY][dD][N(4-Sulfamoylphenethyl)Gly][N(4-Sulfamoylphenethyl)Gly][dD][NFurfurylGly]-{hSer(lactone)})
8.30

# returns recorded pKd (system: M2 monoclonal anti-flag antibody) for NCCCC[C@@H](N)C(=O)N[C@H](Cc1ccc(O)cc1)C(=O)N[C@H](Cc1ccc(O)cc1)C(=O)N[C@H](CC(N)=O)C(=O)N[C@H](CC(=O)O)C(=O)N(CC(=O)N(CC(=O)N[C@H]1CCOC1=O)Cc1ccco1)Cc1ccc2c(c1)OCO2 [Spot D5] (H-[dK][dY][dY][dN][dD][Gly(N-piperonyl)][NFurfurylGly]-{hSer(lactone)})
8.15

# returns recorded pKd (system: M2 monoclonal anti-flag antibody) for NCCCC[C@@H](NC(=O)[C@@H](CC(=O)O)NC(=O)[C@H](N)Cc1c[nH]c2ccccc12)C(=O)N[C@H](Cc1ccc(O)cc1)C(=O)N[C@H](Cc1c[nH]cn1)C(=O)N(CCc1ccc(S(N)(=O)=O)cc1)CC(=O)N(CC(=O)N[C@H]1CCOC1=O)Cc1ccco1 [Spot H8] (H-[dW][dD][dK][dY][dH][N(4-Sulfamoylphenethyl)Gly][NFurfurylGly]-{hSer(lactone)})
8.70

# returns recorded pKd (system: M2 monoclonal anti-flag antibody) for NCCCC[C@@H](NC(=O)[C@@H](CO)NC(=O)[C@H](N)CCC(=O)O)C(=O)N[C@H](Cc1ccc(O)cc1)C(=O)N[C@H](CC(=O)O)C(=O)N[C@H](Cc1ccc(O)cc1)C(=O)N(CC(=O)N[C@H]1CCOC1=O)Cc1ccco1 [Spot B9] (H-[dE][dS][dK][dY][dD][dY][NFurfurylGly]-{hSer(lactone)}; C-terminus assumed)
8.70

# returns recorded pKd (system: M2 monoclonal anti-flag antibody) for C=CCN(CC(=O)N(CC(=O)N[C@H]1CCOC1=O)Cc1ccco1)C(=O)[C@@H](CC(=O)O)NC(=O)CNC(=O)CN(Cc1ccc2c(c1)OCO2)C(=O)[C@@H](Cc1ccc(O)cc1)NC(=O)[C@H](N)CCCCN [Spot E4] (H-[dK][dY][Gly(N-piperonyl)]G[dD][NAllylGly][NFurfurylGly]-{hSer(lactone)})
8.10
